Recorded % Relative activity (WT antibody/test antibody), one value per entry.
Target: T1, human TNFR2 on the surface of CHO-TNFR2 cells (human, UniProt P20333 23-461)
T1 construct: whole, on cells
T1 sequence (looked up): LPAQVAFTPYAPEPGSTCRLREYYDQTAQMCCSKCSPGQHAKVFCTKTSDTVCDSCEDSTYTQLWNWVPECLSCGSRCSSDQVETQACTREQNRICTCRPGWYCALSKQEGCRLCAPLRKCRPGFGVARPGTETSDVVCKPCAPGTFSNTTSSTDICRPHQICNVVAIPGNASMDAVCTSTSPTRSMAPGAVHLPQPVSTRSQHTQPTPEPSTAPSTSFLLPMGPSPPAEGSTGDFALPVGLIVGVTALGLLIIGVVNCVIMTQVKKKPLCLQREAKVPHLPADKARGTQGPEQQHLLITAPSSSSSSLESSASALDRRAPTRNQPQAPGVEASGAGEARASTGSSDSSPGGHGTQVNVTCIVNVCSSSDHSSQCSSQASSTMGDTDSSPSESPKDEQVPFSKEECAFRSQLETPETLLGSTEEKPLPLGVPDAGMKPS
Assay: flow cytometry on CHO-TNFR2 cells; EC50 against 224-WT
Please respond with the number in % and leave the unit unwritten.

224-Hu6 (antibody, V domains shown, Humanized form of #224; also called VH8 + VL7) VH: QVQLVQSGAEVKKPGASVKVSCKASGFNNKDIYMHWVRQAPGQGLEWIGRIDPATGNTKHDPKFQDRVTMTSDTSTNTVYMELSSLRSEDTAVYYCARSPYGDFGAMDYWGQGTLVTVSS VL: DIQMTQSPSSLSASVGDRVTITCTASSSVSSNYLHWYQQKPGSSPKLWIYSTSNLPSGVPSRFSGSGSGTDFTLTISSLQPEDFATYYCHQYHRSPWTFGQGTKVEIK | 139
224-Hu7 (antibody, V domains shown, Humanized form of #224; also called VH9 + VL10) VH: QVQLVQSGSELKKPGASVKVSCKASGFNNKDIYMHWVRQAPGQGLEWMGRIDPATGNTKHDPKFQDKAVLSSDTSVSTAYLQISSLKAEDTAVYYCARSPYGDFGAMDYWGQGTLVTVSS VL: DIQMTQSPSSLSASVGDRVTITCTASSSVSSNYLHWYQQKPGKAPKLLIYSTSNLPSGVPSRFSGSGSGTDFTLTISSLQPEDFATYYCHQYHRSPWTFGQGTKVEIK | 140

Shift focus to the following entry.
Lab book: % Relative activity (WT antibody/test antibody) of 224-Hu4 (antibody, V domains shown, Humanized form of #224; also called VH9 + VL6) VH: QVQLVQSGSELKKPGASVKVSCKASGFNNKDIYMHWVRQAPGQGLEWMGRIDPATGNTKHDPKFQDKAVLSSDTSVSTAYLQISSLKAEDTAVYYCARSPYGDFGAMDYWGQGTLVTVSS VL: DIQMTQSPSSLSASVGDRVTITCTASSSVSSNYLHWYQQKPGKAPKLWIYSTSNLPSGVPSRFSGSGSGTDFTLTISSLQPEDFATYYCHQYHRSPWTFGQGTKVEIK noted as 131
